- Tested on: 299254-011-R-J1-PDC complex spheroids viability
- Assay explanation: Anticancer human tumor 299254-011-R-J1-PDC patient-derived melanoma cell line growth inhibition [GQUAD]
- Condition set: second compound 0.1 µM; first compound 3.16 µM; stronger effect = lower value
Assay metric: viability, T/C (%)
Answers are plain numbers, in %.

Study these solved cases before continuing.
{"columns": ["Molecule", "Value measured"],
 "data": [
  ["COc1ccc([C@@H](O)c2cc(-c3ncnc4cc(N5CCOCC5)ccc34)c(F)cc2Cl)nn1 + Cc1[nH]c2ccc(F)cc2c1-c1nc2c3cccnc3c3ncccc3c2[nH]1", 77.6],
  ["CC1COCCN1c1cc(-c2ccnn2C)c2ccnc(-c3ccn[nH]3)c2n1 (stereo not drawn) + Cc1[nH]c2ccc(F)cc2c1-c1nc2c3cccnc3c3ncccc3c2[nH]1", 17]
]}

Consider the additional molecule presented here.
q: Using the record for COc1cc(C2c3cc4c(cc3C(OC3OC5COC(C)OC5C(O)C3O)C3COC(=O)C23)OCO4)cc(OC)c1O (stereo not drawn) + CN(C)c1ccc(Nc2c3ccc(NC(=O)CCN4CCCC4)cc3nc3cc(NC(=O)CCN4CCCC4)ccc23)cc1 , report its viability, T/C.
a: 101

* * *

- Tested on: 299254-011-R-J1-PDC complex spheroids viability
- Assay explanation: Anticancer human tumor 299254-011-R-J1-PDC cell line growth inhibition [GQUAD];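 also: spheroids exposed to the agents for seven days before readout; percent viability relative to DMSO vehicle control wells = 100%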
- Condition set: second compound 0.1 µM; first compound 1 µM; stronger effect = lower value
Could you mark each record true if its viability, T/C falls strictly under 90%, and false if it equals or exceeds it?

The following compounds have reported results that may help.
{"columns": ["Compound", "Class assignment"],
 "data": [
  ["C=CCn1c(=O)c2cnc(Nc3ccc(N4CCN(C)CC4)cc3)nc2n1-c1cccc(C(C)(C)O)n1 + Cc1[nH]c2ccc(F)cc2c1-c1nc2c3cccnc3c3ncccc3c2[nH]1", "true"],
  ["CC1COCCN1c1cc(-c2ccnn2C)c2ccnc(-c3ccn[nH]3)c2n1 (stereo unspecified) + Cc1cnc(CNC(=O)c2c(=O)c3ccc(N4CCCN(C)CC4)nc3n3c2sc2ccccc23)cn1", "true"]
]}

q: Determine if Nc1ccn(C2OC(CO)C(O)C2(F)F)c(=O)n1 (stereo unspecified) + Cc1[nH]c2ccc(F)cc2c1-c1nc2c3cccnc3c3ncccc3c2[nH]1 shows viability, T/C strictly lower than 90%.
a: true

q: Consider O=C(c1cc(Cc2n[nH]c(=O)c3ccccc23)ccc1F)N1CCN(C(=O)C2CC2)CC1 + Cc1[nH]c2ccc(F)cc2c1-c1nc2c3cccnc3c3ncccc3c2[nH]1 . Does its viability, T/C lie strictly below 90%?
a: false

* * *

- Test system: 299254-011-R-J1-PDC complex spheroids viability
- Assay explanation: Anticancer human tumor 299254-011-R-J1-PDC cell line growth inhibition [GQUAD];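 also: spheroids exposed to the agents for seven days before readout; percent viability relative to DMSO vehicle control wells = 100%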
- Condition set: second compound 0.1 µM; first compound 1 µM; stronger effect = lower value
Assay metric: viability, T/C (%)
Give bare numbers, in %.

{"columns": ["Compound", "Assay metric", "Value measured"],
 "data": [
  ["O=C(NO)c1cnc(N2CCN(S(=O)(=O)c3ccc4ccccc4c3)CC2)nc1 + CN(C)c1ccc(Nc2c3ccc(NC(=O)CCN4CCCC4)cc3nc3cc(NC(=O)CCN4CCCC4)ccc23)cc1", "viability, T/C", 5.67]
]}

Each compound below has a reported value. Please supply its viability, T/C.
1. COc1ccc([C@@H](O)c2cc(-c3ncnc4cc(N5CCOCC5)ccc34)c(F)cc2Cl)nn1 + CN(C)c1ccc(Nc2c3ccc(NC(=O)CCN4CCCC4)cc3nc3cc(NC(=O)CCN4CCCC4)ccc23)cc1
2. CC(=O)O[C@H]1C(=O)[C@@]2(C)[C@H]([C@H](OC(=O)c3ccccc3)[C@]3(O)C[C@H](OC(=O)[C@H](O)[C@@H](NC(=O)c4ccccc4)c4ccccc4)C(C)=C1C3(C)C)[C@]1(OC(C)=O)CO[C@@H]1C[C@@H]2O + Cc1[nH]c2ccc(F)cc2c1-c1nc2c3cccnc3c3ncccc3c2[nH]1
3. O=c1[nH]cc(F)c(=O)[nH]1 + Cc1[nH]c2ccc(F)cc2c1-c1nc2c3cccnc3c3ncccc3c2[nH]1
4. CC(=O)O[C@H]1C(=O)[C@@]2(C)[C@H]([C@H](OC(=O)c3ccccc3)[C@]3(O)C[C@H](OC(=O)[C@H](O)[C@@H](NC(=O)c4ccccc4)c4ccccc4)C(C)=C1C3(C)C)[C@]1(OC(C)=O)CO[C@@H]1C[C@@H]2O + CN(C)c1ccc(Nc2c3ccc(NC(=O)CCN4CCCC4)cc3nc3cc(NC(=O)CCN4CCCC4)ccc23)cc1

a:
1. 108
2. 35.9
3. 123
4. 23.7

Please give viability, T/C, item by item, for the list that follows.
1. O=C(NO)c1cnc(N2CCN(S(=O)(=O)c3ccc4ccccc4c3)CC2)nc1 + Cc1cnc(CNC(=O)c2c(=O)c3ccc(N4CCCN(C)CC4)nc3n3c2sc2ccccc23)cn1
2. C#Cc1c(F)ccc2cc(O)cc(-c3ncc4c(N5CC6CCC(C5)N6)nc(OCC56CCCN5CC(F)C6)nc4c3F)c12 (stereo not given) + CN(C)c1ccc(Nc2c3ccc(NC(=O)CCN4CCCC4)cc3nc3cc(NC(=O)CCN4CCCC4)ccc23)cc1

a:
1: 1.22; 2: 101

I need viability, T/C for every entry listed below, if you could help.
1. C#Cc1c(F)ccc2cc(O)cc(-c3ncc4c(N5CC6CCC(C5)N6)nc(OCC56CCCN5CC(F)C6)nc4c3F)c12 (stereo not given) + Cc1[nH]c2ccc(F)cc2c1-c1nc2c3cccnc3c3ncccc3c2[nH]1
2. CC1COCCN1c1cc(-c2ccnn2C)c2ccnc(-c3ccn[nH]3)c2n1 (stereo not given) + Cc1[nH]c2ccc(F)cc2c1-c1nc2c3cccnc3c3ncccc3c2[nH]1
3. Nc1ccn(C2OC(CO)C(O)C2(F)F)c(=O)n1 (stereo not given) + CN(C)c1ccc(Nc2c3ccc(NC(=O)CCN4CCCC4)cc3nc3cc(NC(=O)CCN4CCCC4)ccc23)cc1

a:
100
21.6
56.6

* * *

- Test system: 299254-011-R-J1-PDC complex spheroids viability
- Assay explanation: Anticancer human tumor 299254-011-R-J1-PDC cell line growth inhibition [GQUAD];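 also: spheroids exposed to the agents for seven days before readout; percent viability relative to DMSO vehicle control wells = 100%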
- Condition set: second compound 0.1 µM; first compound 3.16 µM; stronger effect = lower value
Assign viability, T/C to each entry below.

{"columns": ["Compound", "Value measured"],
 "data": [
  ["O=c1[nH]cc(F)c(=O)[nH]1 + Cc1cnc(CNC(=O)c2c(=O)c3ccc(N4CCCN(C)CC4)nc3n3c2sc2ccccc23)cn1", "99.1%"],
  ["COc1ncnc(C2CC2)c1-c1ncc2cnn(Cc3ccc(-c4nc(C(F)(F)F)cn4C(C)C)cc3)c2n1 + CN(C)c1ccc(Nc2c3ccc(NC(=O)CCN4CCCC4)cc3nc3cc(NC(=O)CCN4CCCC4)ccc23)cc1", "97.4%"]
]}

Below: the item to evaluate.
q: Look up viability, T/C with 299254-011-R-J1-PDC complex spheroids viability for this compound: Cc1cccc(N(C)C(=O)C2C(O)CCN2c2nc(C)cc(C(F)(F)F)c2C#N)c1 (stereo not drawn) + CN(C)c1ccc(Nc2c3ccc(NC(=O)CCN4CCCC4)cc3nc3cc(NC(=O)CCN4CCCC4)ccc23)cc1
a: 90.4%

* * *

- Test system: 299254-011-R-J1-PDC complex spheroids viability
- Assay explanation: Anticancer human tumor 299254-011-R-J1-PDC cell line growth inhibition [GQUAD];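 also: spheroids exposed to the agents for seven days before readout; percent viability relative to DMSO vehicle control wells = 100%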
- Condition set: second compound 3.16 µM; first compound 1 µM; stronger effect = lower value
Exercise: for every item that follows, state its recorded viability, T/C.
Give bare numbers, in %.

{"columns": ["Compound", "Unit of measure", "viability, T/C"],
 "data": [
  ["CC(=O)O[C@H]1C(=O)[C@@]2(C)[C@H]([C@H](OC(=O)c3ccccc3)[C@]3(O)C[C@H](OC(=O)[C@H](O)[C@@H](NC(=O)c4ccccc4)c4ccccc4)C(C)=C1C3(C)C)[C@]1(OC(C)=O)CO[C@@H]1C[C@@H]2O + CN(C)c1ccc(Nc2c3ccc(NC(=O)CCN4CCCC4)cc3nc3cc(NC(=O)CCN4CCCC4)ccc23)cc1", "%", 32.2],
  ["Cc1cccc(N(C)C(=O)C2C(O)CCN2c2nc(C)cc(C(F)(F)F)c2C#N)c1 (centres undefined) + Cc1[nH]c2ccc(F)cc2c1-c1nc2c3cccnc3c3ncccc3c2[nH]1", "%", 98.6],
  ["CC1COCCN1c1cc(C2(S(C)(=N)=O)CC2)nc(-c2ccnc3[nH]ccc23)n1 (centres undefined) + Cc1cnc(CNC(=O)c2c(=O)c3ccc(N4CCCN(C)CC4)nc3n3c2sc2ccccc23)cn1", "%", 31.9]
]}

q: Name the reported viability, T/C value associated with the compound C#Cc1c(F)ccc2cc(O)cc(-c3ncc4c(N5CC6CCC(C5)N6)nc(OCC56CCCN5CC(F)C6)nc4c3F)c12 (centres undefined) + CN(C)c1ccc(Nc2c3ccc(NC(=O)CCN4CCCC4)cc3nc3cc(NC(=O)CCN4CCCC4)ccc23)cc1
a: 112
